Target: Gonadotropin-releasing hormone receptor (Rattus norvegicus, UniProt P30969)
Sequence (P30969 whole entry): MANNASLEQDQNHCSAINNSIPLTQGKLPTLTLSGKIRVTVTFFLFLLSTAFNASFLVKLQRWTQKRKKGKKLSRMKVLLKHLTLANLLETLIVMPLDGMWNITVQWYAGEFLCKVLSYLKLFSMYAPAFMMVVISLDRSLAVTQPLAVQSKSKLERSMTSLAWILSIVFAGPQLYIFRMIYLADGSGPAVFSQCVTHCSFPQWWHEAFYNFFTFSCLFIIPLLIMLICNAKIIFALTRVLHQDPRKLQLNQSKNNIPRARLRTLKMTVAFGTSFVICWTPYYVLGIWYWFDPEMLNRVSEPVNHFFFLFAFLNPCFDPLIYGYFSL
Assay: Competitive radioligand binding assay, in human HEK293 cells stably transfected with the rat Gonadotropin-releasing hormone receptor
Format: cell-based
Reported Ki values for the following molecules.
Please make sure the unit comes right after the number.

Consider the worked cases shown below.
CC(=O)N[C@H](Cc1ccc2ccccc2c1)C(=O)N[C@H](Cc1ccc(Cl)cc1)C(=O)N[C@H](Cc1cccnc1)C(=O)N[C@H]1CC(=O)NC[C@@H](C(N)=O)NC(=O)[C@@H]2CCCN2C(=O)[C@@H]2CCNC(=O)[C@H](CCCN=C(N)N)NC(=O)CC[C@H](NC1=O)C(=O)N[C@H](CCCN=C(N)N)C(=O)N[C@@H](CC(C)C)C(=O)N2 = 0.2 nM
CC(=O)N[C@H](Cc1ccc2ccccc2c1)C(=O)N[C@H](Cc1ccc(Cl)cc1)C(=O)N[C@H](Cc1cccnc1)C(=O)N[C@H]1CC(=O)NC[C@@H](C(N)=O)NC(=O)[C@@H]2CCCN2C(=O)[C@@H]2CCNC(=O)[C@H](Cc3c[nH]cn3)NC(=O)CC[C@H](NC1=O)C(=O)N[C@H](CCCN=C(N)N)C(=O)N[C@@H](CC(C)C)C(=O)N2 = 0.1 nM

# ---- query molecule ----
I have this molecule here, CC(=O)N[C@H](Cc1ccc2ccccc2c1)C(=O)N[C@H](Cc1ccc(Cl)cc1)C(=O)N[C@H](Cc1cccnc1)C(=O)N[C@H]1CC(=O)NC[C@@H](C(N)=O)NC(=O)[C@@H]2CCCN2C(=O)[C@@H]2CCNC(=O)[C@H](Cc3ccccc3)NC(=O)C[C@H](NC1=O)C(=O)N[C@H](CCCN=C(N)N)C(=O)N[C@@H](CC(C)C)C(=O)N2 , and I need its recorded Ki.
12 nM
